- Tested on: HLA-A*1501
- method: cdr2 iTopia peptide screen, HLA-A*1501 Allele
- Format: binding, human
So basically: iScore at 0.07 or higher? That is yes. Lower than 0.07? That is no.

stdin: Evaluate QQLGATGAY [compound 136] : iScore at minimum 0.07?
stdout: yes

stdin: Evaluate LLRQMNEQH [compound 138] : iScore at minimum 0.07?
stdout: yes

stdin: Evaluate MRQMLQSEH [compound 141] : iScore at minimum 0.07?
stdout: yes

stdin: Evaluate RQKRVTMEE [compound 143] : iScore at minimum 0.07?
stdout: no

stdin: Evaluate LQQDLQLAA [compound 140] : iScore at minimum 0.07?
stdout: yes

stdin: Evaluate YDLRQHFVY [compound 139] : iScore at minimum 0.07?
stdout: yes
